ASSAY_COMMENT: in vitro
ASSAY_SETUP: human, Visual CC50
PROPERTY_MEASURED: CC50

# input compound: CNc1nc(N)nc2c1ncn2[C@@H]1O[C@H](CO[P@@](=O)(N[C@@H](C)C(=O)OC(C)C)Oc2ccccc2)[C@@H](O)[C@@]1(C)F [Compound 1A] ; wanted: its CC50
> 50 µM

* * *

ASSAY_COMMENT: in vivo
ASSAY_SETUP: cynomolgus, cynomolgus monkey, po
PROPERTY_MEASURED: concentration at 12 h
Form field: result (number plus unit)

Field request: concentration at 12 h | item: "C[C@@]1(F)[C@H](O)[C@@H](CO)O[C@H]1n1cnc2c(=O)[nH]c(N)nc21"
39 ng/mL
